- Tested on: Calpain activity in SH-SY5Y cells
- assay-explanation: SH-SY5Y + AMC fluorescence assay (Suc-LLVY-AMC substrate)
- Type: cell-based
- condition-context: read-out: SH-SY5Y + AMC IC50
# key: entry, value: IC50

>  <compound>
NC(=O)C(=O)[C@H](Cc1ccccc1)NC(=O)c1nsnc1-c1ccccc1

>  <IC50>
< 10 µM

$$$$
>  <compound>
Cc1cccc(-c2nsnc2C(=O)NC(Cc2ccccc2)C(=O)C(N)=O)c1F (stereo not shown)

>  <IC50>
< 10 µM

$$$$
>  <compound>
NC(=O)C(=O)C(Cc1ccccc1)NC(=O)c1c(Cl)cnn1-c1ncccn1 (stereo not shown)

>  <IC50>
> 25 µM

$$$$

Now examine the next entry.
Q: Any idea what its IC50 is? The compound is NC(=O)C(=O)C(Cc1ccccc1)NC(=O)c1cn(C2CCC2)nc1-c1ccccc1 (stereo not shown)
A: < 10 µM

* * *

- test-target: Human Calpain 1/NS1 (Homo sapiens, UniProt P07384)
- Sequence (P07384 whole entry): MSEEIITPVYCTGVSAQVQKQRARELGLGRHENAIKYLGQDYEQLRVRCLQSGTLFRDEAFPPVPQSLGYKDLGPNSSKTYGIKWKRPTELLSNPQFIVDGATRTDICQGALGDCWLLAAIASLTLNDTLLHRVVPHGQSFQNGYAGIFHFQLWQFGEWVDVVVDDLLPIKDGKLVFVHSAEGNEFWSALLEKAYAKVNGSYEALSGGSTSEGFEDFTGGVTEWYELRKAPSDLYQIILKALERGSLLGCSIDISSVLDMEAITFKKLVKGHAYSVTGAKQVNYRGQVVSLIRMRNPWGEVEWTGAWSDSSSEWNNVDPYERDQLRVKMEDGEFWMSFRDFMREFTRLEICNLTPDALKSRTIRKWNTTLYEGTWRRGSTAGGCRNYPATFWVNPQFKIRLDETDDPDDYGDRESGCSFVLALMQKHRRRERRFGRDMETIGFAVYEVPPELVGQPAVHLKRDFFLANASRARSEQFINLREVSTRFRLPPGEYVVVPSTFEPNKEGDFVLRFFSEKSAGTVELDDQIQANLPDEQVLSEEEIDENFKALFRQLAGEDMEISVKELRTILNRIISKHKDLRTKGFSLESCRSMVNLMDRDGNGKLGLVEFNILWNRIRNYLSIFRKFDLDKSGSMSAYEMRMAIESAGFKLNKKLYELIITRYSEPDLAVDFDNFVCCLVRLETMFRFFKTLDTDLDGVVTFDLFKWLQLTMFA
- Sequence (P04632 whole entry partner): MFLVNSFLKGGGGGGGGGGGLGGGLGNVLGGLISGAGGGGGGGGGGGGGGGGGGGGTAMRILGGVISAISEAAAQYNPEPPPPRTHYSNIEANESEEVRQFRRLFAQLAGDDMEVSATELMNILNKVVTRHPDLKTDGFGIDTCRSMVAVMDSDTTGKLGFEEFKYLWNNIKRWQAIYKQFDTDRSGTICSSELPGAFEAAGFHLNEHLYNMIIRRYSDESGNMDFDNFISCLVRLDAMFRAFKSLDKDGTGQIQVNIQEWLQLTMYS
- assay-explanation: Calpain inhibition continuous fluorescence (FRET) assay, Human Calpain 1/NS1
- Format: biochemical
- condition-context: read-out: Human Calpain 1/NS1 IC50
# key: entry, value: IC50

>  <compound>
Cn1cc(C(=O)NC(CCC(F)(F)F)C(=O)C(N)=O)c(-c2ccccc2)n1 (centres unmarked)

>  <IC50>
> 10 µM

$$$$

Now examine the next entry.
Q: Any idea what its IC50 is? The compound is Cn1cc(C(=O)NC(Cc2ccccc2)C(=O)C(N)=O)c(-c2ccsc2)n1 (centres unmarked)
A: < 3 µM

* * *

- Tested on: Calpain activity in SH-SY5Y cells
- assay-explanation: SH-SY5Y + AMC fluorescence assay (Suc-LLVY-AMC substrate)
- Type: cell-based
- condition-context: read-out: SH-SY5Y + AMC IC50
pIC50: −log10 of the molar value.
value-type: pIC50

Q: Value wanted: pIC50 (Calpain activity in SH-SY5Y cells) of entry NC(=O)C(=O)C(Cc1ccccc1)NC(=O)c1cn(C(F)F)nc1-c1cccc2c1OCO2 (stereo not drawn)
A: > 5.00

* * *

- test-target: Human Calpain 9/NS1 (Homo sapiens)
- Sequence (O14815 whole entry): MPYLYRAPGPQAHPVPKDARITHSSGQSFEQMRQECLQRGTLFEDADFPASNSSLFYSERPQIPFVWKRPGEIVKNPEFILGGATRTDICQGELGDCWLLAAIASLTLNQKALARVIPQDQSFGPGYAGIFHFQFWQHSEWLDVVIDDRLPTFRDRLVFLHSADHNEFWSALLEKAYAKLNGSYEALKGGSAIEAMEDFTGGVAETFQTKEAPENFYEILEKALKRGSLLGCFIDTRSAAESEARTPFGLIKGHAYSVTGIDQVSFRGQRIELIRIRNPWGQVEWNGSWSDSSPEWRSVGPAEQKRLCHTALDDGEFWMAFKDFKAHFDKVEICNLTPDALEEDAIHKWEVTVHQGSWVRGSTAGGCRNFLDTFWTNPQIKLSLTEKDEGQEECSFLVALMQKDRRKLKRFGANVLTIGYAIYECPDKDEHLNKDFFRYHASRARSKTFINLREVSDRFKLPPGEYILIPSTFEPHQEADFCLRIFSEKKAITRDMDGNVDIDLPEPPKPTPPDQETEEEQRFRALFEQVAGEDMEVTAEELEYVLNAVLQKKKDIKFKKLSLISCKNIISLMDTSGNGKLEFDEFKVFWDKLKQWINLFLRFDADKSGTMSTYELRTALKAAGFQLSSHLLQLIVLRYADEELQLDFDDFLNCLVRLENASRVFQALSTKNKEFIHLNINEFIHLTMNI
- Sequence (P04632 whole entry partner): as the sequence (P04632 whole entry partner) above
- assay-explanation: Calpain inhibition continuous fluorescence (FRET) assay, Human Calpain 9/NS1
- Assay type: biochemical
- condition-context: Column C; read-out: Human Calpain 9/NS1 IC50
pIC50: −log10 of the molar value. Where a name gives a salt, the structure may show the parent alone.
value-type: pIC50

Field: example entries. Status: answers known.
>  <molecule>
NC(=O)C(=O)[C@H](Cc1ccccc1)NC(=O)c1cncn1-c1ccc(-c2ccccc2)nn1 [Compound 200]

>  <value-type>
pIC50

>  <endpoint-result>
> 5.52

$$$$
>  <molecule>
Cc1noc(-c2ccccc2)c1C(=O)N[C@@H](CC(C)C)C(=O)C(N)=O [Compound 35]

>  <value-type>
pIC50

>  <endpoint-result>
> 5.52

$$$$
>  <molecule>
Cc1cc(C(=O)N[C@@H](Cc2ccccc2)C(=O)C(N)=O)n(-c2ccnc(Cl)n2)n1 [Compound 246]

>  <value-type>
pIC50

>  <endpoint-result>
> 5.52

$$$$
>  <molecule>
Cn1cc(C(=O)N[C@@H](Cc2ccccc2)C(=O)C(N)=O)c(Br)n1 [Compound 196]

>  <value-type>
pIC50

>  <endpoint-result>
5.00 to 5.52

$$$$
>  <molecule>
Cn1nc(Cl)c(C(=O)NC(Cc2ccccc2)C(=O)C(N)=O)c1Cl (stereo not shown) [Compound 282]

>  <value-type>
pIC50

>  <endpoint-result>
> 5.52

$$$$
>  <molecule>
Cc1noc(-c2ccccc2)c1C(=O)N[C@@H](CCc1ccccc1)C(=O)C(N)=O [Compound 205]

>  <value-type>
pIC50

>  <endpoint-result>
> 5.52

$$$$
>  <molecule>
Cn1cc(C(=O)N[C@@H](Cc2ccccc2)C(=O)C(N)=O)c(-c2ccc(F)cc2)n1 [Compound 179]

>  <value-type>
pIC50

>  <endpoint-result>
> 5.52

$$$$
>  <molecule>
N#Cc1cc(C(=O)N[C@@H](Cc2ccccc2)C(=O)C(N)=O)n(-c2ccccc2)n1 [Compound 272]

>  <value-type>
pIC50

>  <endpoint-result>
5.00 to 5.52

$$$$

Q: Any idea what its pIC50 is? The molecule is Cc1cc(C(=O)N[C@@H](Cc2ccccc2)C(=O)C(N)=O)n(-c2ccc(CNCc3ccccc3)cc2)n1 [Compound 160, hydrochloride]
A: > 5.52

Q: Any idea what its pIC50 is? The molecule is NC(=O)C(=O)[C@H](Cc1ccccc1)NC(=O)c1cc(Cl)nn1-c1ccccc1 [Compound 281]
A: > 5.52

Q: Any idea what its pIC50 is? The molecule is NC(=O)C(=O)[C@H](Cc1ccccc1)NC(=O)c1c(-c2ccccc2)oc2ccccc12 [Compound 249]
A: > 5.52

Q: Any idea what its pIC50 is? The molecule is Cc1cc(C(=O)N[C@@H](Cc2ccccc2)C(=O)C(N)=O)n(-c2ccc3ccccc3n2)n1 [Compound 15]
A: > 5.52

Q: Any idea what its pIC50 is? The molecule is Cc1cccc2sc(-n3nc(C(=O)N[C@@H](Cc4ccccc4)C(=O)C(N)=O)cc3C)nc12 [Compound 299]
A: > 5.52

Q: Any idea what its pIC50 is? The molecule is Cc1cc(C(=O)N[C@@H](Cc2ccccc2)C(=O)C(N)=O)n(-c2cccc(-c3ccc(F)cc3)c2)n1 [Compound 103]
A: > 5.52

Q: Any idea what its pIC50 is? The molecule is Cc1ccccc1-c1c(C(=O)N[C@@H](Cc2ccccc2)C(=O)C(N)=O)cnn1C [Compound 190]
A: 5.00 to 5.52

Q: Any idea what its pIC50 is? The molecule is NC(=O)C(=O)[C@H](Cc1ccccc1)NC(=O)c1conc1-c1ccccc1 [Compound 304]
A: > 5.52

Q: Any idea what its pIC50 is? The molecule is Cn1ncc(C(=O)N[C@@H](Cc2ccccc2)C(=O)C(N)=O)c1-c1cccnc1 [Compound 189]
A: > 5.52

Q: Any idea what its pIC50 is? The molecule is COc1ccc2nc(-n3nc(C)cc3C(=O)N[C@@H](Cc3ccccc3)C(=O)C(N)=O)sc2c1 [Compound 297]
A: > 5.52

Q: Any idea what its pIC50 is? The molecule is NC(=O)C(=O)[C@H](Cc1ccccc1)NC(=O)c1cncn1-c1ccccn1 [Compound 24]
A: > 5.52

Q: Any idea what its pIC50 is? The molecule is Cc1cc(C(=O)N[C@@H](Cc2ccccc2)C(=O)C(N)=O)n(-c2cccc(CNS(=O)(=O)c3ccccc3)c2)n1 [Compound 145]
A: > 5.52

Q: Any idea what its pIC50 is? The molecule is Cn1cc(C(=O)N[C@@H](Cc2ccccc2)C(=O)C(N)=O)c(-c2cccc(Cl)c2)n1 [Compound 187]
A: > 5.52

Q: Any idea what its pIC50 is? The molecule is O=C[C@H](Cc1ccccc1)NC(=O)c1scnc1-n1cc(-c2ccccc2)cn1 [Compound 21]
A: > 5.52

Q: Any idea what its pIC50 is? The molecule is CCc1cccc(-c2nn(C)cc2C(=O)N[C@@H](Cc2ccccc2)C(=O)C(N)=O)c1 [Compound 182]
A: > 5.52

Q: Any idea what its pIC50 is? The molecule is Cc1cc(C(=O)N[C@@H](Cc2ccccc2)C(=O)C(=O)NC2CC2)n(-c2nc3ccccc3n2C)n1 [Compound 295]
A: < 5.00

Q: Any idea what its pIC50 is? The molecule is O=C(NC1CC1)C(=O)[C@H](Cc1ccccc1)NC(=O)c1cncn1-c1cc(-c2ncco2)ccn1 [Compound 77]
A: < 5.00

* * *

# key: entry, value: IC50
- test-target: Human Calpain 1/NS1 (Homo sapiens, UniProt P07384)
- assay-explanation: Calpain inhibition continuous fluorescence (FRET) assay, Human Calpain 1/NS1
- Assay type: biochemical
- condition-context: Column A; read-out: Human Calpain 1/NS1 IC50

Field: example entries. Status: answers known.
>  <compound>
Cc1noc(-c2ccccc2)c1C(=O)N[C@@H](Cc1ccccc1)C(=O)C(=O)NCc1cccnc1 [Compound 224]

>  <IC50>
< 3 µM

$$$$
>  <compound>
Cc1cc(C(=O)N[C@@H](Cc2ccccc2)C(=O)C(N)=O)n(-c2cccnc2)n1 [Compound 136]

>  <IC50>
< 3 µM

$$$$

Q: Value wanted: IC50 (Human Calpain 1/NS1 (Homo sapiens, UniProt P07384)) of entry Cc1noc(-c2ccccc2)c1C(=O)N[C@@H](CCc1ccccc1)C(=O)C(N)=O [Compound 205]
A: < 3 µM

Q: Value wanted: IC50 (Human Calpain 1/NS1 (Homo sapiens, UniProt P07384)) of entry Cc1cc(C(=O)N[C@@H](Cc2ccccc2)C(=O)C(=O)NC2CC2)n(-c2ncccc2C)n1 [Compound 67]
A: > 10 µM

Q: Value wanted: IC50 (Human Calpain 1/NS1 (Homo sapiens, UniProt P07384)) of entry NC(=O)C(=O)[C@H](Cc1ccccc1)NC(=O)c1cncn1-c1ccccc1 [Compound 7]
A: < 3 µM

Q: Value wanted: IC50 (Human Calpain 1/NS1 (Homo sapiens, UniProt P07384)) of entry COC(=O)NCc1cccc(-n2nc(C)cc2C(=O)N[C@@H](Cc2ccccc2)C(=O)C(N)=O)c1 [Compound 140]
A: < 3 µM

Q: Value wanted: IC50 (Human Calpain 1/NS1 (Homo sapiens, UniProt P07384)) of entry Cc1cccc(-c2c(C(=O)N[C@@H](Cc3ccccc3)C(=O)C(N)=O)cnn2C)c1 [Compound 172]
A: < 3 µM

Q: Value wanted: IC50 (Human Calpain 1/NS1 (Homo sapiens, UniProt P07384)) of entry NC(=O)C(=O)[C@H](Cc1ccccc1)NC(=O)c1[nH]cnc1-c1ccccc1 [Compound 48]
A: 3 to 10 µM

Q: Value wanted: IC50 (Human Calpain 1/NS1 (Homo sapiens, UniProt P07384)) of entry Cc1nc(C(=O)N[C@@H](Cc2ccccc2)C(=O)C(N)=O)c(-c2ccccc2)s1 [Compound 54]
A: < 3 µM

Q: Value wanted: IC50 (Human Calpain 1/NS1 (Homo sapiens, UniProt P07384)) of entry CCOC(=O)NCc1cccc(-n2nc(C)cc2C(=O)N[C@@H](Cc2ccccc2)C(=O)C(N)=O)c1 [Compound 147]
A: < 3 µM

Q: Value wanted: IC50 (Human Calpain 1/NS1 (Homo sapiens, UniProt P07384)) of entry Cn1cc(C(=O)N[C@@H](Cc2ccccc2)C(=O)C(N)=O)c(-c2cccnc2)n1 [Compound 188]
A: < 3 µM
